Tested on: PANC-1 cells
Procedure Text: SRB antiproliferative assay, PANC-1
Type: cell-based, human
Stated Conditions: Homo sapiens, PANC-1, 48 h, 48 h of treatment, mean ± SEM
Measurement Type: pIC50
Just so you know, pIC50 here is -log10 of the concentration in molar units; reply with that number alone.

Problem: Checklist item: pIC50 tested on PANC-1 cells, entry COc1cc([C@@H]2c3cc4c(cc3[C@@H](O[C@@H]3O[C@@H]5CO[C@@H](C)O[C@H]5[C@H](O)[C@H]3O)[C@H]3COC(=O)[C@H]23)OCO4)cc(OC)c1O [Etoposide, reference compound] , value?
Solution: 5.51

====

Tested on: HFF-1 cells
Procedure Text: SRB assay, normal foreskin fibroblasts HFF-1
Assay type: cell-based
Stated Conditions: 48 h of treatment, normal human foreskin fibroblasts, mean ± SEM
Recorded pIC50, one value per entry.
Just so you know, pIC50 here is -log10 of the concentration in molar units; reply with that number alone.

Compound: COc1cc([C@@H]2c3cc4c(cc3[C@@H](O[C@@H]3O[C@@H]5CO[C@@H](C)O[C@H]5[C@H](O)[C@H]3O)[C@H]3COC(=O)[C@H]23)OCO4)cc(OC)c1O [Etoposide, reference compound]
Measurement Type: pIC50
Reported: 5.96

Field: next compound
Problem: Checklist item: pIC50 tested on HFF-1 cells, entry c1ccc(Cn2nnnc2-c2cc3c([nH]c4ccccc43)c(-c3ccccc3)n2)cc1 [1a] , value?
Solution: 4.54
